Field: IC50. System: Epidermal growth factor receptor (Homo sapiens, UniProt P00533). Provenance: assorted publications.
Give the value, in units of nM, as a plain number.

Enquiry: Output reported IC50 of the compound COc1cc2ncnc(Nc3cccc(Br)c3)c2cc1[N+](=O)[O-] on Epidermal growth factor receptor (Homo sapiens, UniProt P00533).
Return: 15

Enquiry: Look up Epidermal growth factor receptor (Homo sapiens, UniProt P00533) data: IC50 of CCOC(=O)CCCn1c(=O)oc2cc3ncnc(Nc4ccc5[nH]ncc5c4)c3cc21 , then report it.
Return: 130

Enquiry: # lookup: Epidermal growth factor receptor (Homo sapiens, UniProt P00533) IC50, key = CN(C)CC(CNNC(N)=O)C(=O)c1ccc(OCc2ccccc2)cc1 (centres undefined)
Return: 3900
